# test name: molar heat capacity at constant pressure
# condition info: 413.15 K; 101.33 kPa; Liquid; modulated-temperature differential scanning calorimetry MDSC
Listing of recorded molar heat capacity at constant pressure by entry.
parameter measured: molar heat capacity at constant pressure (J/K/mol)

molecule: CCCCn1cc[n+](C)c1.O=S(=O)([O-])C(F)(F)F [1-butyl-3-methylimidazolium trifluoromethanesulfonate]
parameter measured: molar heat capacity at constant pressure
reading: 481
--
molecule: CCCCCCn1cc[n+](C)c1.O=S(=O)([O-])C(F)(F)F [1-hexyl-3-methylimidazolium trifluoromethanesulfonate]
parameter measured: molar heat capacity at constant pressure
reading: 562
--
molecule: CCCCCC[n+]1ccn(C)c1.O=S(=O)([N-]S(=O)(=O)C(F)(F)F)C(F)(F)F
parameter measured: molar heat capacity at constant pressure
reading: 723
--
molecule: CCn1cc[n+](C)c1.O=S(=O)([O-])C(F)(F)F [1-ethyl-3-methylimidazolium trifluoromethanesulfonate]
parameter measured: molar heat capacity at constant pressure
reading: 421
--
molecule: CCCC[n+]1ccccc1.O=S(=O)([N-]S(=O)(=O)C(F)(F)F)C(F)(F)F [1-butylpyridinium bis[(trifluoromethyl)sulfonyl]imide]
parameter measured: molar heat capacity at constant pressure
reading: 644
--
molecule: CCCCCCCCn1cc[n+](C)c1.O=S(=O)([O-])C(F)(F)F [1-octyl-3-methylimidazolium trifluoromethanesulfonate]
parameter measured: molar heat capacity at constant pressure
reading: 651

----------
Recorded molar heat capacity at constant pressure by entry
# test name: molar heat capacity at constant pressure
# condition info: 335.15 K; 101.33 kPa; Liquid; Small sample (50 mg) DSC
parameter measured: molar heat capacity at constant pressure (J/K/mol)

molecule: CCn1cc[n+](C)c1.O=S(=O)([O-])C(F)(F)F [1-ethyl-3-methylimidazolium trifluoromethanesulfonate]
measurement units: J/K/mol
reading: 394
//
molecule: CCCC[n+]1ccccc1.O=S(=O)([N-]S(=O)(=O)C(F)(F)F)C(F)(F)F [1-butylpyridinium bis[(trifluoromethyl)sulfonyl]imide]
measurement units: J/K/mol
reading: 590
//
molecule: CCCCCCCCn1cc[n+](C)c1.O=S(=O)([O-])C(F)(F)F [1-octyl-3-methylimidazolium trifluoromethanesulfonate]
measurement units: J/K/mol
reading: 616

----------
# test name: molar heat capacity at constant pressure
# condition info: 375.15 K; 101.33 kPa; Liquid; Small sample (50 mg) DSC
Quick reference for molar heat capacity at constant pressure among some compounds
parameter measured: molar heat capacity at constant pressure (J/K/mol)

compound: CCCC[n+]1ccccc1.O=S(=O)([N-]S(=O)(=O)C(F)(F)F)C(F)(F)F [1-butylpyridinium bis[(trifluoromethyl)sulfonyl]imide]
reading: 613
//
compound: CCCCCCCCn1cc[n+](C)c1.O=S(=O)([O-])C(F)(F)F [1-octyl-3-methylimidazolium trifluoromethanesulfonate]
reading: 644
//
compound: CCCCn1cc[n+](C)c1.O=S(=O)([O-])C(F)(F)F [1-butyl-3-methylimidazolium trifluoromethanesulfonate]
reading: 479
//
compound: CCCCCC[n+]1ccn(C)c1.O=S(=O)([N-]S(=O)(=O)C(F)(F)F)C(F)(F)F
reading: 703
//
compound: CCn1cc[n+](C)c1.O=S(=O)([O-])C(F)(F)F [1-ethyl-3-methylimidazolium trifluoromethanesulfonate]
reading: 406
//
compound: CCCCCCn1cc[n+](C)c1.O=S(=O)([O-])C(F)(F)F [1-hexyl-3-methylimidazolium trifluoromethanesulfonate]
reading: 559

----------
# test name: molar heat capacity at constant pressure
# condition info: 348.15 K; 101.33 kPa; Liquid; modulated-temperature differential scanning calorimetry MDSC
Where molar heat capacity at constant pressure equals or exceeds 600 J/K/mol, the correct label is label 1; where it does not, the label is label 0.

molecule: CCCCCCn1cc[n+](C)c1.O=S(=O)([O-])C(F)(F)F [1-hexyl-3-methylimidazolium trifluoromethanesulfonate]
label: label 0
//
molecule: CCCCCC[n+]1ccn(C)c1.O=S(=O)([N-]S(=O)(=O)C(F)(F)F)C(F)(F)F
label: label 1
//
molecule: CCCCn1cc[n+](C)c1.O=S(=O)([O-])C(F)(F)F [1-butyl-3-methylimidazolium trifluoromethanesulfonate]
label: label 0
//
molecule: CCn1cc[n+](C)c1.O=S(=O)([O-])C(F)(F)F [1-ethyl-3-methylimidazolium trifluoromethanesulfonate]
label: label 0

----------
# test name: molar heat capacity at constant pressure
# condition info: 393.15 K; 101.33 kPa; Liquid; modulated-temperature differential scanning calorimetry MDSC

compound: CCCCCCn1cc[n+](C)c1.O=S(=O)([O-])C(F)(F)F [1-hexyl-3-methylimidazolium trifluoromethanesulfonate]
molar heat capacity at constant pressure (J/K/mol): 552
//
compound: CCCC[n+]1ccccc1.O=S(=O)([N-]S(=O)(=O)C(F)(F)F)C(F)(F)F [1-butylpyridinium bis[(trifluoromethyl)sulfonyl]imide]
molar heat capacity at constant pressure (J/K/mol): 636
//
compound: CCCCn1cc[n+](C)c1.O=S(=O)([O-])C(F)(F)F [1-butyl-3-methylimidazolium trifluoromethanesulfonate]
molar heat capacity at constant pressure (J/K/mol): 472
//
compound: CCn1cc[n+](C)c1.O=S(=O)([O-])C(F)(F)F [1-ethyl-3-methylimidazolium trifluoromethanesulfonate]
molar heat capacity at constant pressure (J/K/mol): 416
//
compound: CCCCCCCCn1cc[n+](C)c1.O=S(=O)([O-])C(F)(F)F [1-octyl-3-methylimidazolium trifluoromethanesulfonate]
molar heat capacity at constant pressure (J/K/mol): 640
//
compound: CCCCCC[n+]1ccn(C)c1.O=S(=O)([N-]S(=O)(=O)C(F)(F)F)C(F)(F)F
molar heat capacity at constant pressure (J/K/mol): 716

----------
# test name: molar heat capacity at constant pressure
# condition info: 338.15 K; 101.33 kPa; Liquid; modulated-temperature differential scanning calorimetry MDSC
± gives the expanded uncertainty stated by the source.

compound: CCCC[n+]1ccccc1.O=S(=O)([N-]S(=O)(=O)C(F)(F)F)C(F)(F)F [1-butylpyridinium bis[(trifluoromethyl)sulfonyl]imide]
molar heat capacity at constant pressure: 610 ± 31 J/K/mol

compound: CCCCn1cc[n+](C)c1.O=S(=O)([O-])C(F)(F)F [1-butyl-3-methylimidazolium trifluoromethanesulfonate]
molar heat capacity at constant pressure: 448 ± 22 J/K/mol

compound: CCCCCCCCn1cc[n+](C)c1.O=S(=O)([O-])C(F)(F)F [1-octyl-3-methylimidazolium trifluoromethanesulfonate]
molar heat capacity at constant pressure: 606 ± 30 J/K/mol

----------
# test name: molar heat capacity at constant pressure
# condition info: 405.15 K; 101.33 kPa; Liquid; Small sample (50 mg) DSC

compound: CCn1cc[n+](C)c1.O=S(=O)([O-])C(F)(F)F [1-ethyl-3-methylimidazolium trifluoromethanesulfonate]
molar heat capacity at constant pressure [J/K/mol]: 418
//
compound: CCCCCCCCn1cc[n+](C)c1.O=S(=O)([O-])C(F)(F)F [1-octyl-3-methylimidazolium trifluoromethanesulfonate]
molar heat capacity at constant pressure [J/K/mol]: 666
//
compound: CCCCCC[n+]1ccn(C)c1.O=S(=O)([N-]S(=O)(=O)C(F)(F)F)C(F)(F)F
molar heat capacity at constant pressure [J/K/mol]: 725
//
compound: CCCCCCn1cc[n+](C)c1.O=S(=O)([O-])C(F)(F)F [1-hexyl-3-methylimidazolium trifluoromethanesulfonate]
molar heat capacity at constant pressure [J/K/mol]: 577
//
compound: CCCC[n+]1ccccc1.O=S(=O)([N-]S(=O)(=O)C(F)(F)F)C(F)(F)F [1-butylpyridinium bis[(trifluoromethyl)sulfonyl]imide]
molar heat capacity at constant pressure [J/K/mol]: 630
//
compound: CCCCn1cc[n+](C)c1.O=S(=O)([O-])C(F)(F)F [1-butyl-3-methylimidazolium trifluoromethanesulfonate]
molar heat capacity at constant pressure [J/K/mol]: 495

----------
# test name: molar heat capacity at constant pressure
# condition info: 410.15 K; 101.33 kPa; Liquid; Small sample (50 mg) DSC
Each entry gets not satisfied if its molar heat capacity at constant pressure stays under 600 J/K/mol, and satisfied if its molar heat capacity at constant pressure is 600 J/K/mol or above.

compound: CCCC[n+]1ccccc1.O=S(=O)([N-]S(=O)(=O)C(F)(F)F)C(F)(F)F [1-butylpyridinium bis[(trifluoromethyl)sulfonyl]imide]
label: satisfied

compound: CCn1cc[n+](C)c1.O=S(=O)([O-])C(F)(F)F [1-ethyl-3-methylimidazolium trifluoromethanesulfonate]
label: not satisfied

compound: CCCCn1cc[n+](C)c1.O=S(=O)([O-])C(F)(F)F [1-butyl-3-methylimidazolium trifluoromethanesulfonate]
label: not satisfied

compound: CCCCCCn1cc[n+](C)c1.O=S(=O)([O-])C(F)(F)F [1-hexyl-3-methylimidazolium trifluoromethanesulfonate]
label: not satisfied

compound: CCCCCCCCn1cc[n+](C)c1.O=S(=O)([O-])C(F)(F)F [1-octyl-3-methylimidazolium trifluoromethanesulfonate]
label: satisfied

compound: CCCCCC[n+]1ccn(C)c1.O=S(=O)([N-]S(=O)(=O)C(F)(F)F)C(F)(F)F
label: satisfied

----------
As shown below, each of these compounds has a reported molar heat capacity at constant pressure value.
# test name: molar heat capacity at constant pressure
# condition info: 363.15 K; 101.33 kPa; Liquid; modulated-temperature differential scanning calorimetry MDSC

compound: CCCCCC[n+]1ccn(C)c1.O=S(=O)([N-]S(=O)(=O)C(F)(F)F)C(F)(F)F
molar heat capacity at constant pressure (J/K/mol): 701
--
compound: CCCCCCn1cc[n+](C)c1.O=S(=O)([O-])C(F)(F)F [1-hexyl-3-methylimidazolium trifluoromethanesulfonate]
molar heat capacity at constant pressure (J/K/mol): 538
--
compound: CCCCn1cc[n+](C)c1.O=S(=O)([O-])C(F)(F)F [1-butyl-3-methylimidazolium trifluoromethanesulfonate]
molar heat capacity at constant pressure (J/K/mol): 460
--
compound: CCCC[n+]1ccccc1.O=S(=O)([N-]S(=O)(=O)C(F)(F)F)C(F)(F)F [1-butylpyridinium bis[(trifluoromethyl)sulfonyl]imide]
molar heat capacity at constant pressure (J/K/mol): 624
--
compound: CCn1cc[n+](C)c1.O=S(=O)([O-])C(F)(F)F [1-ethyl-3-methylimidazolium trifluoromethanesulfonate]
molar heat capacity at constant pressure (J/K/mol): 405
--
compound: CCCCCCCCn1cc[n+](C)c1.O=S(=O)([O-])C(F)(F)F [1-octyl-3-methylimidazolium trifluoromethanesulfonate]
molar heat capacity at constant pressure (J/K/mol): 622
